Origin of values: ChEMBL document CHEMBL5137093

assay: Metabolic stability in human intestine microsomes assessed as half life; assay type: ADME, Microsome

COMPOUND	half-life
COC(=O)N[C@H](C(=O)N[C@@H](Cc1ccccc1)[C@H](CN(Cc1ccc(-c2ccccn2)cc1)NC(=O)[C@@H](NC(=O)OC)C(C)(C)C)OC(=O)OC(OC(=O)[C@@H](N)C(C)C)C(C)C)C(C)(C)C (stereo in doubt; 3s)	1.83 h

###

assay: AUClast in Sprague-Dawley rat at 3 mg/kg,po measured upto 24 hrs by UPLC-MS/MS analysis; format: ADME, organism-based; set-up: time < 24 hrs, dose 3 mg/kg, route po; details: in vivo
MEASURED_QUANTITY: AUC(0-t) at 24 h (µM·h)

> print(dat)
                            chemical.smiles  recorded.value
1  COC(=O)N[C@H](C(=O)N[C@@H](Cc1ccccc1)[C@@H](O)CN(Cc1ccc(-c2ccccn2)cc1)NC(=O)[C@@H](NC(=O)OC)C(C)(C)C)C(C)(C)C           0.384
